experiment: qHTS for Inhibitors of the Functional Ribonucleoprotein Complex (vRNP) of Lymphocytic Choriomeningitis Arenaviruses (LCMV): Viability assay - alamar blue signal for LCMV Primary Screen (AID 1347085); conditions: alamar blue viability counter-screen, LCMV vRNP screen cells; series mostly up to 57.5 µM; also: nearly all actives have a fitted effect of over 80% in size
Records with an inconclusive call do not appear. Active and inactive are the calls of the source. Calls follow the shape of the full dose curve; tested in HEK293 reporter line.
Respond only with the outcome that fits, drawn from active, inactive

| compound | class |
| --- | --- |
| CCCCCCCCCCCCCC | inactive |
| C=C(C)[C@@H]1CCC2(C(=O)O)CC[C@]3(C)[C@H](CC[C@@H]4[C@@]5(C)CCC(=O)C(C)(C)[C@@H]5CC[C@]43C)[C@@H]12 (some centres undefined) | inactive |
| CC(C)CCC[C@@H](C)[C@@H]1CC[C@H]2C3=CC=C4CC(O)CC[C@]4(C)[C@H]3CC[C@@]21C (some centres undefined) | inactive |
| COc1c(OC)c(O)c2c(=O)cc(-c3c(O)cccc3O)oc2c1OC | inactive |
| CCSC(=N)N | inactive |
| Clc1ccc(C2(c3ccc(-c4cn[nH]c4)cc3)CCNCC2)cc1 | active |
| C=Cc1cc(OC)c2c(c1)c(=O)oc1c2cc(OC)c2c(O)ccc(C3OC(C)C(O)C(C)(O)C3O)c21 (centres undefined) | inactive |
| Cc1cccc(Nc2nc(-c3ccncc3)cs2)c1 | inactive |
| CC(C)=CCC[C@](C)(O)C1CC[C@]2(C)C1[C@H](O)CC1[C@@]3(C)CC[C@H](O[C@@H]4O[C@H](CO)[C@@H](O)[C@H](O)[C@H]4O[C@@H]4O[C@H](CO)[C@@H](O)[C@H](O)[C@H]4O)C(C)(C)C3CC[C@]12C (some centres undefined) | inactive |
| CCCCC(C)/C=C(C)/C=C(\C)C(=O)NC1=CC(O)(/C=C/C=C/C=C/C(=O)NC2=C(O)CCC2=O)C2OC2C1=O (centres undefined) | inactive |

Query: Test call, this compound: Clc1ccc2c(c1)N=C(N1CCNCC1)c1ccccc1N2
Reply: inactive

Query: Hi, sorry to bother you, what did the test record for CC(C)[N+]1(C)[C@@H]2CC[C@H]1CC(OC(=O)C(CO)c1ccccc1)C2 (some centres undefined) ?
Reply: inactive

Query: Answer briefly: the call reported for NS(=O)(=O)c1ccc(NC2=CC(=O)c3ccccc3C2=O)cc1 in this assay.
Reply: active

Query: Call for entry N#C/C(=C\c1ccc(O)c(O)c1)C(=O)NCc1ccccc1 :
Reply: inactive

Query: What did the test return for CC(C)(O)C1CC[C@@](C)([C@@H]2CC[C@]3(C)[C@H]2[C@H](O)CC2[C@@]4(C)CCC(O)C(C)(C)C4C(OC4OC(CO)C(O)C(O)C4O[C@@H]4OCC(O)C(O)C4O)C[C@]23C)O1 (some centres undefined) ?
Reply: inactive

Query: Entry C=C(C)[C@@H]1CC[C@]2(C(=O)O)CC[C@]3(C)C(CCC4[C@@]5(C)CC[C@H](O)C(C)(C)C5CC[C@]43C)C12 (some centres undefined) : call = ?
Reply: inactive

Query: Please state the recorded outcome for this compound: CC1=C(O)C(=O)OC1C (centres undefined)
Reply: inactive

Query: # fetch the recorded call for CCC(C)SSC(C)CC (centres undefined) here
Reply: inactive

Query: Which outcome was entered for the compound CCOC(=O)c1c(C)cc(O)cc1O in this test?
Reply: inactive

Query: Assay result, entry COC1=CC(=O)CC(C)C12Oc1cc(OC)cc(OC)c1C2=O (centres undefined) — outcome?
Reply: inactive

Query: I'd appreciate the recorded outcome for CC(C)CC[C@@H](O)[C@](C)(O)C1CC[C@@]2(O)C3=CC(=O)[C@@H]4C[C@@H](O)[C@@H](O)C[C@]4(C)C3CC[C@]12C (some centres undefined) from this test.
Reply: inactive

Query: Per the records of this test, what outcome belongs to COC(=O)N[C@H](C(=O)N1CCC[C@@H]1c1ncc(-c2ccc(-c3ccc(-c4cnc([C@@H]5CCCN5C(=O)[C@@H](NC(=O)OC)C(C)C)[nH]4)cc3)cc2)[nH]1)C(C)C ?
Reply: inactive

Query: Please let me know the test result on file for O=C(O)[C@@H]1C[C@H](C(=O)O)N1 .
Reply: inactive

Query: Please indicate how the test categorized CC1(C)C[C@H](O)[C@@]23C[C@@H](OC2=O)[C@]2(C)C(=CCC4[C@@]5(C)CC[C@H](O)C(C)(C)C5CC[C@]42C)[C@@H]3C1 (some centres undefined) .
Reply: inactive

Query: Outcome logged for Cc1c[nH]c(C=C2C(=O)Nc3ccccc32)c1CCC(=O)O in this assay:
Reply: inactive

Query: Called result for CCOC(=O)C12CC1/C(=N/O)c1ccccc1O2 (centres undefined)
Reply: inactive

Query: Outcome? CC(=O)O[C@H]1C[C@@H]2CC[C@H]3[C@H]4C[C@H]([N+]5(C)CCCCC5)[C@@H](OC(C)=O)[C@@]4(C)CC[C@@H]3[C@@]2(C)C[C@H]1[N+]1(C)CCCCC1
Reply: inactive
